For each of the molecules below, state its melting point.

## Task melting point for CCN(CC)CCN(CC)C(=O)COc1ccc(NC(=O)c2c[nH]c3c2C(=O)CCC3)cc1 ?
## Result 165 to 167 °C

## Task Query: melting point; subject: O=C(Nc1ccc(OCCN2CCCC2)cc1)c1c[nH]c2c1C(=O)CCC2
## Result 164 to 168 °C

## Task Which measured melting point value corresponds to CN(C)Cc1ccc(NC(=O)c2c[nH]c3c2C(=O)CCC3)cc1 ?
## Result 216 to 218 °C

## Task Fill blank: measured melting point of the molecule CCOC(=O)COc1ccc(NC(=O)c2c[nH]c3c2C(=O)CCC3)cc1F is ____.
## Result 192 to 196 °C

## Task Any idea what its melting point is? The molecule is CCCNCCOc1ccc(NC(=O)c2c[nH]c3c2C(=O)CCC3)cc1
## Result 130 to 133 °C

## Task Any idea what melting point was measured for COCc1ccc(NC(=O)c2c[nH]c3c2C(=O)CCC3)cc1 ?
## Result 164 to 165 °C

## Task Quick one: melting point of CCCNCCOc1ccncc1NC(=O)c1c[nH]c2c1C(=O)CCC2.Cl ?
## Result 177 to 178 °C

## Task If you can, please state the reported melting point value of CC1(C)CC(=O)c2c(C(=O)Nc3ccc(CO)cc3)c[nH]c2C1 .
## Result 245 to 247 °C

## Task Any idea what melting point was measured for CN(C)CCOc1ccc(NC(=O)c2c[nH]c3c2C(=O)CCC3)cc1 ?
## Result 201 °C

## Task State the recorded melting point for this entry: O=C(Nc1cccc(OCCCNC23CC4CC(CC(C4)C2)C3)c1)c1c[nH]c2c1C(=O)CCCC2
## Result 175 to 176 °C

## Task // lookup melting point for CNCc1ccc(NC(=O)c2c[nH]c3c2C(=O)CCC3)cc1
## Result 217 to 219 °C

## Task melting point for O=C(Nc1ccc2c(c1)OCO2)c1c[nH]c2c1C(=O)CCC2 ?
## Result 248 to 249 °C

* * *

Consider the following compounds; for each one, report its melting point.

## Task Query: melting point; subject: CC1(C)CCc2[nH]cc(C(=O)Nc3ccc4c(c3)OCOC4)c2C1=O
## Result 251 to 252 °C

## Task Looking for the measured melting point of CC(C)CNCCOc1ccc(NC(=O)c2c[nH]c3c2C(=O)CCC3)cc1F , can you help?
## Result 147 to 149 °C

## Task Item Cl.O=C(Nc1cnccc1OCc1ccncc1)c1c[nH]c2c1C(=O)CCCC2 has what recorded melting point?
## Result 235 to 240 °C (dec.)

## Task What melting point value was documented for this compound, CC1(C)CC(=O)c2c(C(=O)Nc3ccc4c(c3)OCO4)c[nH]c2C1 ?
## Result 245 to 246 °C

## Task Reported melting point for Cl.O=C(Nc1cnccc1OCCN1CCCC1)c1c[nH]c2c1C(=O)CCC2 : what is it?
## Result 188 to 245 °C (dec.)

## Task What value of melting point has been recorded for this entry: CCCNCCOc1ccncc1NC(=O)c1c[nH]c2c1C(=O)CCCC2.Cl
## Result 210 °C

## Task Can you share its melting point? I mean this compound: CC1(C)CCc2[nH]cc(C(=O)Nc3ccc4c(c3)OCCO4)c2C1=O
## Result 241 to 243 °C

* * *

molecular target: GABAa receptor; assay: GABAa receptor binding assay (3H-RO15-1788 displacement); conditions: rat cortical tissue homogenate; radioligand 0.5 nM 3H-RO15-1788 [3H-Flumazenil]; 30 min at 4° C.
measured_quantity: pKi
Notebook: values listed as pKi are -log10 of the concentration (mol/L).

## Task Query: pKi; subject: NCc1ccc(NC(=O)c2c[nH]c3c2C(=O)CCC3)cc1
## Result 8.05

## Task I am curious: what pKi value has been reported for CNCc1ccc(NC(=O)c2c[nH]c3c2C(=O)CCCC3)cc1 ?
## Result 7.52

## Task Fill in: pKi of O=C(Nc1ccc2c(c1)OCCO2)c1c[nH]c2c1C(=O)CCC2 is ___
## Result 8.15

## Task Data request, read-out pKi, for O=C(Nc1ccc(OCCO)nc1)c1c[nH]c2c1C(=O)CCC2
## Result 8.52

## Task Suppose we examine the compound O=C(Nc1ccc2c(c1)OCO2)c1c[nH]c2c1C(=O)CCC2 ; what pKi value has been reported?
## Result 7.43

* * *

For each entry below, report its melting point value.

## Task Please report the recorded melting point for CNCc1cccc(NC(=O)c2c[nH]c3c2C(=O)CCC3)c1 .
## Result 130 to 132 °C

## Task Could you tell me which melting point is on file for O=C(Nc1cnccc1OCc1cccnc1)c1c[nH]c2c1C(=O)CCCC2 ?
## Result 241 to 243 °C

## Task # melting point lookup, item O=C(Nc1ccc(OCC(=O)N2CCOCC2)c(F)c1)c1c[nH]c2c1C(=O)CCC2
## Result 110 °C

## Task Look up melting point for this compound: CNCc1ccc(NC(=O)c2c[nH]c3c2C(=O)CC(C)(C)C3)cc1
## Result 230 to 232 °C

## Task Can you look up the measured melting point of CCNCCOc1ccc(NC(=O)c2c[nH]c3c2C(=O)CCCC3)cc1.Cl for me?
## Result 227 to 228 °C

## Task # lookup: melting point of CCNCc1ccc(NC(=O)c2c[nH]c3c2C(=O)CCC3)cc1
## Result 194 to 195 °C

## Task Which measured melting point value corresponds to CNCc1ccc(NC(=O)c2c[nH]c3c2C(=O)CCCC3)cc1 ?
## Result 173 to 175 °C

## Task Requested field: melting point. Item: O=C(Nc1ccc(OCCNC2C3CC4CC(C3)CC2C4)cc1)c1c[nH]c2c1C(=O)CCC2 (stereo not drawn)
## Result 144 to 149 °C

## Task Reported melting point, compound Cl.O=C(Nc1cnccc1OCc1ccncc1)c1c[nH]c2c1C(=O)CCC2 : ____
## Result 293 °C

## Task Recorded melting point for O=C(Nc1ccc(OCCn2ccnc2)cc1)c1c[nH]c2c1C(=O)CCC2 , please?
## Result 226 to 230 °C

## Task # query: melting point of entry CC1(C)CC(=O)c2c(C(=O)Nc3cccc(CO)c3)c[nH]c2C1
## Result 233 to 235 °C

## Task Request the reported melting point associated with CCNCCOc1ccncc1NC(=O)c1c[nH]c2c1C(=O)CCC2.Cl
## Result 178 to 180 °C

## Task Item under review: Cl.O=C(Nc1cnccc1OCCN1CCCCC1)c1c[nH]c2c1C(=O)CCC2 . Reported melting point?
## Result 208 to 211 °C

## Task Which melting point value is on record for O=C(Nc1ccc2c(c1)NCCO2)c1c[nH]c2c1C(=O)CCC2 ?
## Result 216 °C

## Task I'd like to know its melting point. The compound in question is CCCCNCCOc1ccncc1NC(=O)c1c[nH]c2c1C(=O)CCC2.Cl
## Result 157 to 159 °C
